Target under test: T1, HA-GCN4 hAPRIL (amino acid residues 105-250) (human, UniProt O75888 105-250)
T1 construct: Bought (R&D Systems); also called HA-tagged GCN4 human APRIL; HA-GCN4-huAPRIL; not shown: N-terminal HA tag; GCN4 isoleucine zipper oligomerization domain
T1 sequence: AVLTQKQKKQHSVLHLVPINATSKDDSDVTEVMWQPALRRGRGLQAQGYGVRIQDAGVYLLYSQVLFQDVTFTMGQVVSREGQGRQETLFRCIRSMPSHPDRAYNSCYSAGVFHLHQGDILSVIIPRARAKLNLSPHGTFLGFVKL
Assay protocol: blocking ELISA, 4-parameter fit; blocked: human APRIL binding to human TACI-Fc
pIC50: −log10 of the molar value.

Binder	pIC50
monoclonal antibody 3631 (antibody, V domains shown, mouse-derived) VH: EIQLQQSGPELVKPGASVKVSCKASGYSFTDYNIYWVKQSHGKSLEWIGYIDPSNGGPGYNQKFRGKATLTVDKSSSTAFLHLNSLTSEDSAVYYCARRDNYGSGTMDYWGQGTSVTVSS VL: DIVMTQSQKFMSTSVGDRVSITCKASQNVGTDVSWYQQKPGKSPKPLIYWASNRFTGVPDRFIGSGSGTDFTLTISNVQSEDLADYFCEQYSIYPLTFGAGTKLELK	9.57
monoclonal antibody 4540 (antibody, V domains shown, mouse-derived) VH: QVQLQQSGPELVKPGASVKISCKASGYTFADYYINWVKQRPGQGLEWIGWIFPGSGSTYYNEKFKGKATLTVDKSSSTAYMLLSSLTSEDSAVYFCARGDSGRAMDYWGQGTSVTVSS VL: DIQMTQSPSSLSASLGGKVTITCKASQDINKYIAWYQHKPGKGPRLLIHYTSTLQSGIPSRFSGSGSGRDYSFSISNLEPEDNATYYCLQYDNLLTFGAGTKLELK	9.00
